Measured pIC50 values are reported for all entries that follow.
target: PI3Kdelta (Homo sapiens, UniProt O00329); construct: purchased Upstate; Millipore 14-604; test: HTRF PI3K biochemical assay, delta isoform; settings: 0.3 nM enzyme, 100 uM ATP, 5 uM PIP2, form screened (Neutral or TFA salt) given per compound
Sequence (O00329 whole entry, canonical isoform): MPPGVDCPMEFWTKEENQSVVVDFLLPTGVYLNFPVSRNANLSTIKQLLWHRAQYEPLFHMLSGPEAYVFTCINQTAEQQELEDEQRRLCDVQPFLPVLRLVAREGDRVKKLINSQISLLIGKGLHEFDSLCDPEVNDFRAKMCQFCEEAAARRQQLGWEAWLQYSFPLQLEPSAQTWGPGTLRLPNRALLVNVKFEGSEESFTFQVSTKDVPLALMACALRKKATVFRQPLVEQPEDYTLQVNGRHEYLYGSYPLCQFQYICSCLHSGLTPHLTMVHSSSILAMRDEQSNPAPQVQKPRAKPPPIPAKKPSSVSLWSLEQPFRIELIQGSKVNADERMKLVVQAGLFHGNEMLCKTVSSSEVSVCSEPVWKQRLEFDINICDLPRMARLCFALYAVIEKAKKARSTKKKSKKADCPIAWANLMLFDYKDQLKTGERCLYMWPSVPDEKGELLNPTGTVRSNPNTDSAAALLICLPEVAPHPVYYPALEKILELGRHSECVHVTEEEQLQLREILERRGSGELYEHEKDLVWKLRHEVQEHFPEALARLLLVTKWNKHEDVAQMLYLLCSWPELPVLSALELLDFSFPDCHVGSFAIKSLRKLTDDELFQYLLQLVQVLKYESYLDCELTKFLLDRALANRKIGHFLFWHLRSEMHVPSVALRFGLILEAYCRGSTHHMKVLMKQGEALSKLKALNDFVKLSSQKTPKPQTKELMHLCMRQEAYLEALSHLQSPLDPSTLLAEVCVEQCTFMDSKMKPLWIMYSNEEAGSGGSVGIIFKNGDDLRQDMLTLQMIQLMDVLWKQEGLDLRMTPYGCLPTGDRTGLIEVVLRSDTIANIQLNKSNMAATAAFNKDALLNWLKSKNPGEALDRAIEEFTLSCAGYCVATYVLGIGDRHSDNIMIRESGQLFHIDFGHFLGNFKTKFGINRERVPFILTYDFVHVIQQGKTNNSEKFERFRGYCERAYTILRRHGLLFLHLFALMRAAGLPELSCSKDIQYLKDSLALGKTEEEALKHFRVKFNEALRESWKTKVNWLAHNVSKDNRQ
Sequence (P27986 whole entry partner, canonical isoform): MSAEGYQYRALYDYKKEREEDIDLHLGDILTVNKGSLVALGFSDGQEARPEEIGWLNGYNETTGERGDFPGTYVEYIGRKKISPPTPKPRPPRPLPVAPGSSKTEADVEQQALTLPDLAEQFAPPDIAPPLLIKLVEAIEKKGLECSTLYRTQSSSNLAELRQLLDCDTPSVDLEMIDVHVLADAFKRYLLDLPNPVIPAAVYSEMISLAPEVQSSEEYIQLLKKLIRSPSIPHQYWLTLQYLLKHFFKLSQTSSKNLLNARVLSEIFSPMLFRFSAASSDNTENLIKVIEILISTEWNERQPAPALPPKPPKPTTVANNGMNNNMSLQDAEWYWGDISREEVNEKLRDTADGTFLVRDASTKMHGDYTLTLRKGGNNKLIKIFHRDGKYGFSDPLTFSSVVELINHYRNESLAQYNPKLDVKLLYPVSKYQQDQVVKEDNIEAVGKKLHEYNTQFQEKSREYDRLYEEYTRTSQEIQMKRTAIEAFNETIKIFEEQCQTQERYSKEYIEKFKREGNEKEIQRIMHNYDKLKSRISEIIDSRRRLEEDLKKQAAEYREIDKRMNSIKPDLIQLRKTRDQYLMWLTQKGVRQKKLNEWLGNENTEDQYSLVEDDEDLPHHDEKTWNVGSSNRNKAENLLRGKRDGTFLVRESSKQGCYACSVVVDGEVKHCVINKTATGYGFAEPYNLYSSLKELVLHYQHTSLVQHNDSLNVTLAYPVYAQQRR
pIC50: −log10 of the molar value.
PROPERTY_MEASURED: pIC50

>>> reported_result("CCn1c(-c2cnn(-c3ccccc3)c2)nc2c(NC3CCc4nnc(C(C)C)n4C3)ncnc21 (single isomer, unassigned)")
"> 9.00"
>>> reported_result("CCn1c(-c2cnc(C)nc2)nc2c(NC3CCc4nc(Cl)n(C5CC5)c4C3)ncnc21 (racemic)")
"> 9.00"
>>> reported_result("CCn1c(-c2cnc(C)nc2)nc2c(NC3CCc4c(c(C(C)C)nn4S(C)(=O)=O)C3)ncnc21 (racemic)")
"> 9.00"
>>> reported_result("CCn1c(-c2ccc(OC(F)(F)F)cc2)nc2c(NC3CCc4nnc(C5CC5)n4C3)ncnc21 (racemic)")
8.41
>>> reported_result("CCn1c(-c2ccc(C(F)(F)F)cc2)nc2c(NC3CCc4nnc(C(C)C)n4C3)ncnc21 (single isomer, unassigned)")
"> 9.00"
>>> reported_result("CCn1c(-c2cnc(C)nc2)nc2c(NC3CCc4c(c(C(C)C)nn4C(=O)CN(C)C)C3)ncnc21 (racemic)")
7.70
>>> reported_result("CCn1c(C(=O)NCC(F)(F)F)nc2c(NC3CCc4nnc(C(C)C)n4C3)ncnc21 (racemic)")
7.92
>>> reported_result("CCn1c(-c2cnc(C)nc2)nc2c(NC3CCc4ncn([C@H]5C[C@@H](OC)C5)c4C3)ncnc21 (single isomer, unassigned) [Compound 5-14]")
6.64
>>> reported_result("CCn1c(-c2cnc(C)nc2)nc2c(NC3CCc4c(c(C5CC5)nn4C(=O)OC(C)(C)C)C3)ncnc21 (racemic)")
"> 9.00"
>>> reported_result("CCn1c(-c2cnc(C)nc2)nc2c(NC3CCc4c(c(C(C)C)nn4C(=O)OC(C)(C)C)C3)ncnc21 (racemic)")
"> 9.00"
>>> reported_result("CCn1c(-c2cnn(-c3ccccc3)c2)nc2c(NC3CCc4nnc(C5CC5)n4C3)ncnc21 (racemic)")
"> 9.00"
